Where do the numbers come from? From ChEMBL document CHEMBL4007481.

tested on: Klebsiella aerogenes; test: Inhibition of FtsZ in Klebsiella aerogenes ATCC 9621 assessed as growth inhibition at 100 ug per disc after 18 to 24 hrs by paper disc agar diffusion assay
Active and inactive are the calls of the source. The rule behind the calls is not given here.
endpointLabel: inhibition

[[record]]
substancesmiles = "NC(=O)c1c(F)ccc(OCC(=O)Oc2ccccc2)c1F"
endpointlabel = "inhibition"
observedmeasurement = "inactive"

[[record]]
substancesmiles = "NC(=O)c1c(F)ccc(OCCCOc2cccc3cccnc23)c1F"
endpointlabel = "inhibition"
observedmeasurement = "inactive"

[[record]]
substancesmiles = "NC(=O)c1c(F)ccc(OCC(=O)OCc2ccccc2)c1F"
endpointlabel = "inhibition"
observedmeasurement = "inactive"

